Each entry below lists one item and its recorded log10(IC50) value.
Molecular target: NHE3 (Homo sapiens)
Construct: expressed in transfected cells
Assay: persistent inhibition of NHE3 in the cell-based assay of example 181 (4-chloro vs 4-cyano pairs)
Settings: cell-based assay of example 181, after washout; read-out: pIC50 (persistent) (converted)
MEASUREMENT_LABEL: log10(IC50) (log10 of the value in nM)

>  <GIVEN_SMILES>
C[C@@H]1CN([C@H]2Cc3c(C#N)cc(Cl)cc3[C@@H]2Oc2ccc(S(=O)(=O)N[C@@H]3CCN(CCOCCNC(=O)NCCCCNC(=O)NCCOCCN4CC[C@@H](NS(=O)(=O)c5ccc(O[C@H]6c7cc(Cl)cc(C#N)c7C[C@@H]6N6CCN[C@H](C)C6)cc5)C4)C3)cc2)CCN1

>  <REPORTED>
-0.20

$$$$
>  <GIVEN_SMILES>
N#Cc1cc(Cl)cc2c1C[C@H](N1CCNCC1)[C@H]2Oc1ccc(S(=O)(=O)NCCOCCOCCNC(=O)NCCCCNC(=O)NCCOCCOCCNS(=O)(=O)c2ccc(O[C@H]3c4cc(Cl)cc(C#N)c4C[C@@H]3N3CCNCC3)c(F)c2)cc1F

>  <REPORTED>
-0.30

$$$$
>  <GIVEN_SMILES>
CN(C)[C@@H]1CCCN([C@H]2Cc3c(C#N)cc(Cl)cc3[C@@H]2Oc2ccc(S(=O)(=O)NCCOCCOCCNC(=O)NCCCCNC(=O)NCCOCCOCCNS(=O)(=O)c3ccc(O[C@H]4c5cc(Cl)cc(C#N)c5C[C@@H]4N4CCC[C@@H](N(C)C)C4)cc3)cc2)C1

>  <REPORTED>
0.10

$$$$
>  <GIVEN_SMILES>
N#Cc1cc(Cl)cc2c1C[C@H](N1CCNCC1)[C@H]2Oc1ccc(S(=O)(=O)N[C@H]2CCN(CCOCCNC(=O)NCCCCNC(=O)NCCOCCN3CC[C@H](NS(=O)(=O)c4ccc(O[C@H]5c6cc(Cl)cc(C#N)c6C[C@@H]5N5CCNCC5)c(F)c4)C3)C2)cc1F

>  <REPORTED>
-0.30

$$$$
>  <GIVEN_SMILES>
C[C@@H]1CN([C@H]2Cc3c(Cl)cc(Cl)cc3[C@@H]2Oc2ccc(S(=O)(=O)N[C@H]3CCN(C(=O)CNC(=O)CNC(=O)NCCCCNC(=O)NCC(=O)NCC(=O)N4CC[C@H](NS(=O)(=O)c5ccc(O[C@H]6c7cc(Cl)cc(Cl)c7C[C@@H]6N6CCN[C@H](C)C6)cc5)C4)C3)cc2)CCN1

>  <REPORTED>
-0.20

$$$$
>  <GIVEN_SMILES>
C[C@@H]1CN([C@H]2Cc3c(C#N)cc(Cl)cc3[C@@H]2Oc2ccc(S(=O)(=O)N[C@H]3CCN(C(=O)CNC(=O)CNC(=O)NCCCCNC(=O)NCC(=O)NCC(=O)N4CC[C@H](NS(=O)(=O)c5ccc(O[C@H]6c7cc(Cl)cc(C#N)c7C[C@@H]6N6CCN[C@H](C)C6)cc5)C4)C3)cc2)CCN1

>  <REPORTED>
-0.90

$$$$
>  <GIVEN_SMILES>
O=C(NCCCCNC(=O)NCCOCCN1CC[C@H](NS(=O)(=O)c2ccc(O[C@H]3c4cc(Cl)cc(Cl)c4C[C@@H]3N3CCNCC3)c(F)c2)C1)NCCOCCN1CC[C@H](NS(=O)(=O)c2ccc(O[C@H]3c4cc(Cl)cc(Cl)c4C[C@@H]3N3CCNCC3)c(F)c2)C1

>  <REPORTED>
0.60

$$$$

###

Target: NHE3 (Homo sapiens, UniProt P48764)
Construct: expressed in transfected cells
Sequence (P48764 26-834): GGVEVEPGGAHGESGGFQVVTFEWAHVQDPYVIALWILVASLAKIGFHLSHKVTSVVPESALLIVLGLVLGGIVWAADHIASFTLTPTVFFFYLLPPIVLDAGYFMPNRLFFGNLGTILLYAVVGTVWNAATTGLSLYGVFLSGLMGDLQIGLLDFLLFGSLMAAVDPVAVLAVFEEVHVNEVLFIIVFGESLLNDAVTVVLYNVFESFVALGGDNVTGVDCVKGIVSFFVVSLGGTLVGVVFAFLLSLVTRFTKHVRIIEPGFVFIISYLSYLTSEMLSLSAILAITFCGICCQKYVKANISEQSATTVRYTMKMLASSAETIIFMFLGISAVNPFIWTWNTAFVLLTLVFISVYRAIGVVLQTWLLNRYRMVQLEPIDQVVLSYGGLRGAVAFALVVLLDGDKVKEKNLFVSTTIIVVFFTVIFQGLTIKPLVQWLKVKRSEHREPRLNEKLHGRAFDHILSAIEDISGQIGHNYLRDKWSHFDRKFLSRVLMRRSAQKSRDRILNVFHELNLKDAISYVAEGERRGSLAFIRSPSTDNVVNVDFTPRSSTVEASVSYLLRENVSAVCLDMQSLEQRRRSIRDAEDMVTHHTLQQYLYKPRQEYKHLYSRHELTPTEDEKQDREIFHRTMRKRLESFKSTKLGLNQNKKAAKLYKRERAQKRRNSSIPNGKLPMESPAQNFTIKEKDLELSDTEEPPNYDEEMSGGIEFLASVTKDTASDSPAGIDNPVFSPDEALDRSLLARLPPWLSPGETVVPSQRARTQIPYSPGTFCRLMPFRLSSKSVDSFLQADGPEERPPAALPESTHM
Sequence (Q99653 2-195 partner limits assumed): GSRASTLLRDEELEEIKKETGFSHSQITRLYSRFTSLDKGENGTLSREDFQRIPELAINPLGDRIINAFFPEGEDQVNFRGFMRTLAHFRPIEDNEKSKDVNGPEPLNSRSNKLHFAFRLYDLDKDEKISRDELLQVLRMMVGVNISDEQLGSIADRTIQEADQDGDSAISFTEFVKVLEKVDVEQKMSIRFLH
Test: Cell-based assay of NHE-3 activity (pre-incubation inhibition), human
Conditions: human Preincubation

>  <COMPOUND>
Cc1cc(Cl)cc2c1C[C@H](N1CCC[C@@H](N(C)C)C1)[C@H]2Oc1ccc(S(=O)(=O)NCCOCCOCCNC(=O)NCCCCNC(=O)NCCOCCOCCNS(=O)(=O)c2ccc(O[C@H]3c4cc(Cl)cc(C)c4C[C@@H]3N3CCC[C@@H](N(C)C)C3)c(F)c2)cc1F [Example 30]

>  <% inhibition>
C (>70%)

$$$$
>  <COMPOUND>
N#Cc1cc(Cl)cc2c1C[C@H](N1C[C@@H]3C[C@H]1CN3)[C@H]2Oc1ccc(S(=O)(=O)N[C@@H]2CCN(CCOCCNC(=O)NCCCCNC(=O)NCCOCCN3CC[C@@H](NS(=O)(=O)c4ccc(O[C@H]5c6cc(Cl)cc(C#N)c6C[C@@H]5N5C[C@@H]6C[C@H]5CN6)cc4)C3)C2)cc1 [Example 131, bis(trifluoroacetic acid)]

>  <% inhibition>
C (>70%)

$$$$
>  <COMPOUND>
CN(C)[C@@H]1CCCN([C@H]2Cc3c(Cl)cc(Cl)cc3[C@@H]2Oc2ccc(S(=O)(=O)NCCOCCOCCNC(=O)NCCCCNC(=O)NCCOCCOCCNS(=O)(=O)c3ccc(O[C@H]4c5cc(Cl)cc(Cl)c5C[C@@H]4N4CCC[C@@H](N(C)C)C4)cc3)cc2)C1 [Example 25]

>  <% inhibition>
C (>70%)

$$$$
>  <COMPOUND>
N#Cc1cc(Cl)cc2c1C[C@H](N1CCNCC1)[C@H]2Oc1ccc(S(N)(=O)=O)cc1 [Example 146]

>  <% inhibition>
C (>70%)

$$$$

###

Molecular target: NHE3 (Homo sapiens)
Construct: expressed in transfected cells
Test: Cell-based assay of NHE-3 activity (pre-incubation inhibition), human
Settings: human Preincubation
MEASUREMENT_LABEL: % inhibition

>  <GIVEN_SMILES>
Cc1cc(S(=O)(=O)NCCOCCOCCNC(=O)NCCCCNC(=O)NCCOCCOCCNS(=O)(=O)c2cc(C)c(O[C@H]3c4cc(Cl)cc(Cl)c4C[C@@H]3N(C)C)c(F)c2)cc(F)c1O[C@H]1c2cc(Cl)cc(Cl)c2C[C@@H]1N(C)C

>  <REPORTED>
C (>70%)

$$$$
>  <GIVEN_SMILES>
N#Cc1cc(Cl)cc2c1C[C@H](N1CCNCC1)[C@H]2Oc1ccc(S(=O)(=O)N2CCC(NC(=O)CCCNC(=O)NCCCCNC(=O)NCCCC(=O)NC3CCN(S(=O)(=O)c4ccc(O[C@H]5c6cc(Cl)cc(C#N)c6C[C@@H]5N5CCNCC5)cc4)CC3)CC2)cc1

>  <REPORTED>
C (>70%)

$$$$
>  <GIVEN_SMILES>
Cc1cc(S(=O)(=O)NCCOCCOCCNC(=O)NCCCCNC(=O)NCCOCCOCCNS(=O)(=O)c2ccc(O[C@H]3c4cc(Cl)cc(C)c4C[C@@H]3N3CCC[C@@H](N(C)C)C3)c(C)c2)ccc1O[C@H]1c2cc(Cl)cc(C)c2C[C@@H]1N1CCC[C@@H](N(C)C)C1

>  <REPORTED>
C (>70%)

$$$$
>  <GIVEN_SMILES>
CN(C)[C@H]1Cc2c(Cl)cc(Cl)cc2[C@@H]1Oc1ccc(S(=O)(=O)NCCOCCOCCNC(=O)NCCCCNC(=O)NCCOCCOCCNS(=O)(=O)c2ccc(O[C@H]3c4cc(Cl)cc(Cl)c4C[C@@H]3N(C)C)c(F)c2)cc1F

>  <REPORTED>
C (>70%)

$$$$
>  <GIVEN_SMILES>
CN1CCCN([C@H]2Cc3c(C#N)cc(Cl)cc3[C@@H]2Oc2ccc(S(=O)(=O)N[C@@H]3CCN(CCOCCNC(=O)NCCCCNC(=O)NCCOCCN4CC[C@@H](NS(=O)(=O)c5ccc(O[C@H]6c7cc(Cl)cc(C#N)c7C[C@@H]6N6CCCN(C)CC6)cc5)C4)C3)cc2)CC1

>  <REPORTED>
A (NHE3 < 40%)

$$$$
>  <GIVEN_SMILES>
N[C@@H]1CCCN([C@H]2Cc3c(Cl)cc(Cl)cc3[C@@H]2Oc2ccc(S(=O)(=O)N3CC[C@@H](OCCOCCNC(=O)NCCCCNC(=O)NCCOCCO[C@@H]4CCN(S(=O)(=O)c5ccc(O[C@H]6c7cc(Cl)cc(Cl)c7C[C@@H]6N6CCC[C@@H](N)C6)cc5)C4)C3)cc2)C1

>  <REPORTED>
C (>70%)

$$$$
>  <GIVEN_SMILES>
O=C(NCCCCNC(=O)NCCOCCOCCNS(=O)(=O)c1ccc(O[C@H]2c3cc(Cl)cc(Cl)c3C[C@@H]2N2CCNCC2)c(F)c1)NCCOCCOCCNS(=O)(=O)c1ccc(O[C@H]2c3cc(Cl)cc(Cl)c3C[C@@H]2N2CCNCC2)c(F)c1

>  <REPORTED>
C (>70%)

$$$$
>  <GIVEN_SMILES>
Cc1cc(S(=O)(=O)NCCOCCOCCNC(=O)NCCCCNC(=O)NCCOCCOCCNS(=O)(=O)c2ccc(O[C@H]3c4cc(Cl)cc(C#N)c4C[C@@H]3N3CCC[C@@H](N)C3)c(C)c2)ccc1O[C@H]1c2cc(Cl)cc(C#N)c2C[C@@H]1N1CCC[C@@H](N)C1

>  <REPORTED>
A (NHE3 < 40%)

$$$$
